# Test system: RPMI-8226 leukemia
# TEST_PROTOCOL: NCI tumour cell line growth inhibition, 48 h; in the data active = GI50 below about 0.43 µM; inactive = the rest
Possible outcomes: True (active), False (inactive)

>>> cat("Cc1cc(N=Cc2c(CO)cnc(C)c2O)c(N=Cc2c(CO)cnc(C)c2O)cc1C")
"False"
>>> cat("COc1cc(C(=O)NN=C2c3ccccc3-c3ccccc32)cc(OC)c1OC")
"False"
>>> cat("COC(=O)Nc1nc2ccc(C(=O)c3ccc(F)cc3)cc2[nH]1")
"False"
>>> cat("O=C1c2ccc3c4c(ccc(c24)C(=O)N1CCNCc1ccccc1)C(=O)N(CCNCc1ccccc1)C3=O")
"False"
>>> cat("O=c1/c(=C\\c2ccc(Br)cc2)sc2n1C(c1ccc(Br)cc1)C1=C(N=2)c2ccc3ccccc3c2OCC1 (stereo not drawn)")
"False"
>>> cat("COc1ncc(-c2ccc3nccc(C#CCCCCC(=O)NO)c3c2)cc1NS(=O)(=O)c1ccc(F)cc1F")
"False"
>>> cat("COc1c(B(O)O)cccc1-c1nc2c(F)cc3n[nH]c(C)c3c2c2c1CCCC2")
"False"
>>> cat("COC(=O)[C@]12CC[C@@H](C)[C@H](C)[C@@H]1C1=CC[C@@H]3[C@@](C)(CC#N)C4=C(C[C@@]3(C)[C@]1(C)CC2)OC[C@]4(C)C=O")
"False"
>>> cat("CCCCOC(=O)c1c(C)[nH]c(/C=C2\\N=C(c3ccc[nH]3)C=C2OC)c1C")
"True"
>>> cat("COc1ccc(/C=C/C(=O)/C=C(O)/C=C/c2ccc(OC)c(OC)c2)cc1OC")
"False"
>>> cat("Nc1cc(N)c2nc(NCCc3ccc(Cl)c(Cl)c3)cnc2c1")
"False"
>>> cat("COC(=O)c1cccc(NC(=O)c2ccc(NC3=C(Cl)C(=O)N(Cc4ccccc4)C3=O)cc2)c1")
"False"
>>> cat("O=C(CN1CCN(C(=O)c2ccco2)CC1)Nc1ccc(Cl)cc1C(=O)c1ccccc1Cl")
"False"

###

Catalogue of TGI readings, one per entry.
# Tested on: BT-549 breast
# TEST_PROTOCOL: NCI tumour cell line growth inhibition, 48 h
OBSERVED_PROPERTY: TGI (µM)

>>> result("O[C@@]12Cc3c([nH]c4ccccc34)[C@@H]3Oc4c(-c5ccccc5)ccc5c4[C@@]31CCN(CC1CC1)[C@@H]2C5")
23.4
>>> result("Cc1cc(-c2cc(OC(=O)c3ccccc3)ccc2Cl)cc2nnc(Nc3ccc(OCCN4CCCC4)cc3)nc12")
6.68
>>> result("CC(C)C(=O)/C=C/c1c(Cl)cccc1Cl")
9.81
>>> result("OC(Cc1cc(CC(O)(C(F)(F)F)C(F)(F)F)nc(CC(O)(C(F)(F)F)C(F)(F)F)c1)(C(F)(F)F)C(F)(F)F")
6.1

###

Catalogue of TGI readings, one per entry.
# System: PC-3 prostate
# TEST_PROTOCOL: NCI tumour cell line growth inhibition, 48 h
OBSERVED_PROPERTY: TGI

>>> result("CC(=O)Nc1cc2c3c(cccc3c1)-c1ccccc1-2")
"> 100 µM"
>>> result("COc1cc(C)[nH]c(=O)c1CNC(=O)c1c(C)n([C@H](C)C2CCN(CC(F)(F)F)CC2)c2ccccc12")
"> 100 µM"
>>> result("CN(C)c1ccc(/C=c2/c3cc(O)ccc3n3c2cc(-c2ccccc2)[n+]3C)cc1")
"2.25 µM"
>>> result("CC(C)C(/C=C/c1ccc(Cl)cc1)=N\\NC(=O)N/N=C(/C=C/c1ccc(Cl)cc1)C(C)C")
"> 100 µM"
>>> result("Nc1ncnc2c1ccn2-c1cccc(NC(=O)c2ccc(N3CCOCC3)c(C(F)(F)F)c2)c1")
"10.4 µM"
>>> result("O=C(CN1CCN(C(=O)c2ccco2)CC1)Nc1ccc(Cl)cc1C(=O)c1ccccc1Cl")
"16.3 µM"
>>> result("CC(C)c1c(O[Si](C(C)C)(C(C)C)C(C)C)cc2c(c1O)CC[C@H]1C(C)(C)CCC[C@]21C")
"> 100 µM"
>>> result("O=C(O)c1ccc(/C=N/N=C2c3ccccc3-c3ccccc32)cc1")
"> 100 µM"
>>> result("CCCCCCc1cc2cc(C(=O)Nc3cccc(F)c3)c(=N)oc2cc1O")
"14 µM"
>>> result("COc1ccc2nc3cc(Cl)ccc3c(NCCCCCC(=O)NC(COc3ccc4ccc5cccnc5c4n3)COc3ccc4ccc5cccnc5c4n3)c2c1")
"28.4 µM"
>>> result("COC(=O)[C@H](Cc1ccccc1)NC(=O)N(CCNC(=O)OC(C)(C)C)c1ccccc1")
"> 100 µM"
>>> result("CN(Cc1cnc2nc(N)nc(N)c2n1)c1ccc(C(=O)NCCCC(=O)O)cc1")
"> 100 µM"
>>> result("Cn1c(=O)cc(Nc2ccc(N)cc2)[nH]c1=O")
"> 100 µM"
>>> result("CCn1ncc(N=O)c1N")
"> 100 µM"
>>> result("O=C(NN1C(=O)CSC1c1c(Cl)cccc1Cl)C(O)c1ccccc1 (centres undefined)")
"> 100 µM"
>>> result("Nc1cc(N)c2nc(NCCc3ccc(Cl)c(Cl)c3)cnc2c1")
"21.3 µM"
>>> result("Nc1nc(N)c2c(n1)CCC(S(=O)(=O)c1ccc3ccccc3c1)C2 (centres undefined)")
"> 100 µM"
>>> result("COc1ncc(-c2ccc3nccc(C#CCCCCC(=O)NO)c3c2)cc1NS(=O)(=O)c1ccc(F)cc1F")
"4.8 µM"
>>> result("C=C(C)CCC(O)[C@](C)(O)[C@H]1[C@H](O)C[C@@]2(C)[C@@H]3CCc4c(cc(OC5OC(CO)C(O)C(O)C5O)c(O)c4C)C3(C)C(=O)C[C@]12C (some centres undefined)")
"> 100 µM"
>>> result("O=c1c2cc([N+](=O)[O-])ccc2n2n1CCCCC2")
"> 100 µM"
>>> result("CC1(C)N([O-])[N+](=O)C1(C)O (centres undefined)")
"> 100 µM"
>>> result("COc1cc(N2CCC(N)CC2)ccc1Nc1ncc(Cl)c(-c2c[nH]c3ccccc23)n1")
"3.63 µM"
>>> result("CCOc1cc2c(cc1O)C(=O)C[C@@H]1[C@@H]2CC[C@]2(C)[C@@H](O)CC[C@@H]12")
"> 82.5 µM"
>>> result("C=CC(=O)N1CCC[C@@H](n2nc(-c3ccc(Oc4ccccc4)cc3)c3c(N)ncnc32)C1")
"> 10 µM"
>>> result("C=CCOCn1cnc2c(=O)[nH]c(N)nc21")
"> 100 µM"
>>> result("O=C(CCCn1ccnc1[N+](=O)[O-])NCCn1cnc([N+](=O)[O-])n1")
"> 100 µM"
>>> result("Cc1c(C(=O)c2ccccc2)[n+](=O)c2cc(F)c(F)cc2n1[O-]")
"14.1 µM"
>>> result("CCc1ncc(CO)n1Cc1cccc2ccccc12")
"> 100 µM"
>>> result("Fc1ccc(Nc2nc3nonc3nc2Nc2ccc(I)cc2)cc1")
"10.7 µM"
